Hi there, I'd appreciate the recorded IC50 for every entry that follows.
target: crosslinked smooth muscle actomyosin (chicken gizzard smooth muscle myosin subfragment-1 crosslinked to cardiac or skeletal actin) (Gallus gallus)
Answer with a number only, understood to be in µM.

Could you please provide reported IC50 for `O=C(Nc1ccccc1)OCC1(C(=O)NCc2ccccc2Cl)CCOCC1` ? Thanks! 15.2

Could you please provide reported IC50 for `Cc1c(Cl)cccc1CNC(=O)C1(COC(=O)Nc2ccc(C(F)(F)F)cc2)CCN(C(=O)CN)CC1` ? Thanks! 0.179

Could you please provide reported IC50 for `CCc1ccc(NC(=O)OCCN(CCN)C(=O)NCc2ccccc2Cl)cc1` ? Thanks! 2.83

Could you please provide reported IC50 for `CCc1ccc(NC(=O)OCC2(C(=O)NCc3ccccc3Cl)CCN(C(=O)c3ncc[nH]3)CC2)cc1` ? Thanks! 0.394

Could you please provide reported IC50 for CCc1ccc(NC(=O)OCC2(C(=O)NCc3ccccc3Cl)CCCN(C(=O)[C@H](CO)NC(=O)OC(C)(C)C)C2)cc1 (stereo partly drawn) ? Thanks! 9.09

Could you please provide reported IC50 for `CCc1ccc(NC(=O)OCC2(C(=O)NCc3cccnc3C)CCN(C(=O)CN)CC2)cc1` ? Thanks! 9.44
